Source listed as PubChem BioAssay AID1963432.

System: SYO-1 complex spheroid growth, percent test/control
methodDescription: Anticancer human tumor SYO-1 cell line growth inhibition [Asc]; active = viability on the fitted dose curve at most 10% of control; inactive = the rest;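 also: compound exposure lasted 7 days after spheroids grew 3 days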
conditions: second compound 0.0949 µM; first compound 3.16 µM
Allowed answers: active, inactive

Please review the following examples before continuing.
C=C(F)C(=O)N1CCN(c2nc(OCC3CCCN3C)nc3c2CCN(c2cccc4cccc(Cl)c24)C3)CC1CC#N (centres undefined) + CCN1C(C(=O)NC23CCC(C(=O)O)(CC2)CC3)C(c2cccc(Cl)c2F)C2(C(=O)Nc3cc(Cl)ccc32)C12CCCCC2 = active
O=C(c1cc(Cc2n[nH]c(=O)c3ccccc23)ccc1F)N1CCN(C(=O)C2CC2)CC1 + CCN1C(C(=O)NC23CCC(C(=O)O)(CC2)CC3)C(c2cccc(Cl)c2F)C2(C(=O)Nc3cc(Cl)ccc32)C12CCCCC2 = active
C#Cc1c(F)ccc2cc(O)cc(-c3ncc4c(N5CC6CCC(C5)N6)nc(OCC56CCCN5CC(F)C6)nc4c3F)c12 (centres undefined) + CCN1C(C(=O)NC23CCC(C(=O)O)(CC2)CC3)C(c2cccc(Cl)c2F)C2(C(=O)Nc3cc(Cl)ccc32)C12CCCCC2 = inactive

Now examine the next entry.
(Q) Which outcome was entered for the molecule C=CC(=O)N1CCN(c2nc(=O)n(-c3c(C)ccnc3C(C)C)c3nc(-c4c(O)cccc4F)c(F)cc23)C(C)C1 (centres undefined) + CCN1C(C(=O)NC23CCC(C(=O)O)(CC2)CC3)C(c2cccc(Cl)c2F)C2(C(=O)Nc3cc(Cl)ccc32)C12CCCCC2 in this test?
(A) inactive
